- Tested on: SNB-75
- method-summary: NCI tumour cell line growth inhibition, 48 h
Active and inactive are the calls of the source. Rule as the data show it: active = GI50 up to about 1.1 µM and inactive = higher.
// one of yes (1) = active, no (0) = inactive, no free text

Below are worked cases with known answers.
Incoming: Record request — test call for COc1cccc(CCNc2c(C#N)c3nc4ccccc4n3c3ccccc23)c1
Outgoing: yes (1)

Incoming: Record request — test call for C[C@]12C=CC(=O)C=C1CC[C@H]1[C@@H]3C[C@@H](O)[C@](O)(C(=O)CO)[C@@]3(C)C[C@H](O)[C@@]12F
Outgoing: no (0)

Incoming: Record request — test call for N/N=C(/C=C1\C(=O)Nc2ccccc21)c1ccccc1
Outgoing: no (0)

Incoming: Record request — test call for Cc1cc(N(CCC#N)CCC#N)ccc1C(/N=N\c1ccc([N+](=O)[O-])cc1)=N\NC(=O)c1cc(Cl)ccc1O
Outgoing: no (0)

Incoming: Record request — test call for O=C(CSc1nnc(-c2ccccn2)s1)N/N=C/c1ccccc1
Outgoing: no (0)

More entries:
Incoming: Record request — test call for Cn1c(=O)oc2nc(-c3ccccc3)cc(C(F)(F)F)c21
Outgoing: no (0)

Incoming: Record request — test call for CC1C2CC(CC2O)C1(C)C (configuration not stated)
Outgoing: no (0)

Incoming: Record request — test call for COc1ccc(CN(Cc2ccc(OC)cc2)C(=O)CC2(O)C=CCC2)cc1 (configuration not stated)
Outgoing: no (0)

Incoming: Record request — test call for COC(=O)c1ccc2c(c1)sc1nc(-c3ccc(OC)cc3)cn12
Outgoing: no (0)

Incoming: Record request — test call for CC(=O)OCC1CCC(=C2C(=O)OC(C)(C)OC2=O)N1 (configuration not stated)
Outgoing: no (0)

Incoming: Record request — test call for O=c1c(O)cccn1C1OC(CO)C(O)C1O (configuration not stated)
Outgoing: no (0)

Incoming: Record request — test call for O=C(O)CN1CCN(CC(=O)N2CCN(C(=O)OCc3ccccc3)CC2)CCN(CC(=O)O)CCN(CC(=O)N2CCN(C(=O)OCc3ccccc3)CC2)CC1
Outgoing: no (0)

----------
Assign GI50 to each entry below.
- Test system: MDA-MB-231
- method-summary: NCI tumour cell line growth inhibition, 48 h
Activity calls are given as the source filed them. Rule as the data show it: active = GI50 up to about 1.1 µM and inactive = higher.

See these solved cases before continuing.
Incoming: Fetch value of GI50 on MDA-MB-231 for CN1CCC(C(O)(c2ccccc2)c2ccc(Br)cc2)CC1 (stereo not drawn) .
Outgoing: 14.7 µM (inactive)

Incoming: Fetch value of GI50 on MDA-MB-231 for CC(=O)OCC1CCC(=C2C(=O)OC(C)(C)OC2=O)N1 (stereo not drawn) .
Outgoing: > 100 µM (inactive)

Lab note: next molecule to report on.
Incoming: Fetch value of GI50 on MDA-MB-231 for O=c1[nH]nc(Cc2ccccc2)n1/N=C/c1ccc([N+](=O)[O-])o1 .
Outgoing: 3.38 µM (inactive)

----------
- Tested on: HT-29
- method-summary: NCI tumour cell line growth inhibition, 48 h
Active and inactive are the calls of the source. Rule as the data show it: active = GI50 up to about 1.1 µM and inactive = higher.
assay-readout: GI50

Incoming: Assign GI50 to the following record: Cc1ccc(S(=O)(=O)OC[C@@H]2CO2)cc1
Outgoing: > 100 µM (inactive)

Incoming: Assign GI50 to the following record: COc1ccc(OC)c([N+](=O)[O-])c1-c1nc2sc(Cl)cn2c1/C=N/N=C(N)N
Outgoing: 15.5 µM (inactive)

Incoming: Assign GI50 to the following record: CCOC(=O)CSc1nnc2cc(CN3CCCC3)c(-c3ccc(Cl)cc3)nn12
Outgoing: 74.5 µM (inactive)

# map each compound to its GI50
1. COC(=O)/C(=N\NC(N)=O)C(C(=O)C(=O)Nc1ccccc1C(=O)OC)c1nc2ccc(C(=O)c3ccccc3)cc2nc1O (centres undefined)
2. O=[N+]([O-])/C(C(Cl)=C(Cl)Cl)=C(\Nc1cccc2ccccc12)Sc1ccccc1
3. COc1cccc(NC(=O)CSc2nnc(-c3ccc(NC(C)=O)cc3)o2)c1
4. O=S(=O)(c1ccccc1)N1CCCC(c2ccccc2)CC1 (centres undefined)

Outgoing:
1: > 100 µM (inactive); 2: 19.5 µM (inactive); 3: 39.6 µM (inactive); 4: 15.1 µM (inactive)

# map each compound to its GI50
1. O=C1NC(=S)NC(=O)C1C(c1ccc([N+](=O)[O-])cc1)C1C(=O)NC(=S)NC1=O.c1ccncc1
2. O=C(Nc1ccccc1)c1cc(S(=O)(=O)N2CCNC2=O)c(S)cc1Cl

Outgoing:
1: > 100 µM (inactive); 2: > 100 µM (inactive)
